Target: T1, canine OX40L, full length membrane form, expressed on HEK293 cells (canine)
T1 chain: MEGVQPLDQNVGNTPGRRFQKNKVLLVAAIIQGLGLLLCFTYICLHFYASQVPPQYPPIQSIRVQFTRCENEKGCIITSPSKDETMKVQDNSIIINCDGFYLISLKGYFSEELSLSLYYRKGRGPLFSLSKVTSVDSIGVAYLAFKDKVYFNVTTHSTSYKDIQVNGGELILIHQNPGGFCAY
Assay: cell-based or functional assay

binder	unit-label	% Signal Inhibition Rep3
PMX108 (antibody, V domains shown) VH: EVQLVESGGDLVRPGGSLRLSCVASGFTFTNYHMSWVRQAPGKGLQWVAFINSGGSSTTYTDVVRGRFTISRDYAKNTLYLQMNSLTAEDTAVYYCASGAIWTHFDHWGQGTLVTVSS VL: SFVLTQLPSVSVTLRQTARITCGGDSVGSKSVYWYQQKLGQAPVLIIYRDSNRPTGIPERFSGASSGNTATLTISGALAEDEADYYCQVWDNSNKAIFGGGTHLTVL	%	61.3
PMX292 (antibody, V domains shown) VH: AVQLVESGGDLVRPGGSLRLSCVASGFTFSNFDMYWVRQAPGRGLQWVATISYDGFNTYSTDTVRGRFTISRDNARNTVYLQMNSLRVEDTAVFYCTARRFGLGYWGQGTLVTVSS VL: DIFMAQTPPSLSVSPRETASISCKASQSLLHSDGNTYLDWYLQKPGQSPQLLIYLVSNRFPGVSDRFSGSGSGTGFTLRISRVEASDTGVYYCGQGTQLPYTFSQGTKLEIK	%	62.9

From: patent US20250340659A1
